Test system: MAP3K2;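 further: KINOMEscan kinase panel screen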
Settings: concentration: 1 μM,replicates: in singlicate; n = 1
If the reported %Inh equals or exceeds 3%, assign 1. If not, assign -1.

Solved cases below.
Cc1n[nH]c2cc(Nc3ccnc(Nc4cccc(CN5CCOCC5)c4)n3)ccc12 :: 1
CNC(=O)c1ccccc1Nc1nc(Nc2cccc(CS(C)(=O)=O)c2)ncc1C.O=CO :: 1
CCCC(=O)Nc1n[nH]c2ncccc12 :: 1
O=c1[nH]cc(-c2ccc(O)cc2)c2sc(-c3ccncc3)cc12 :: 1
c1ccc(Oc2ccc(Nc3ccnc4ccc(-c5ccccn5)cc34)cc2)cc1 :: 1
COC(=O)Nc1nc2cc(Oc3ccc(NC(=O)Nc4cc(C(F)(F)F)ccc4Cl)cc3)ccc2[nH]1.Cl :: -1

Decide: %Inh of "C[C@@H]1CNc2c(sc3ccc4nc(-c5ccc(O)cc5)ccc4c23)C(=O)N1" >= 3%? 1

Decide: %Inh of "Cn1ccc2ncnc(Oc3ccc(NC(=O)Nc4ccnc(C(F)(F)F)c4)c(Cl)c3)c21" >= 3%? -1

Decide: %Inh of "Cc1cccc(-c2nc(Nc3ccncc3)c3sccc3n2)n1" >= 3%? 1

Decide: %Inh of "O=C(Nc1cccc(C(F)(F)F)c1)c1cccc(Oc2ccc3nccn3n2)c1" >= 3%? 1

Decide: %Inh of "Cn1ccc2ncnc(Oc3ccc(NC(=O)Nc4cnn(C(C)(C)C)c4)c(Cl)c3)c21" >= 3%? -1

Decide: %Inh of "CCN1CCN(CCCC(=O)Nc2n[nH]c3nc(-c4ccc(O)cc4)c(Br)cc23)CC1" >= 3%? -1
